Exercise: for every item that follows, state its recorded viability, T/C.
Test system: 362531-283-R-J2-PDC complex spheroid viability;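 further: spheroids exposed to the agents for 7 days before readout; luminescence viability as percent of DMSO vehicle control wells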
protocolNotes: Anticancer human tumor 362531-283-R-J2-PDC patient-derived colon adenocarcinoma cell line growth inhibition [RAS]
cond: second compound 0.03 µM; first compound 1 µM; stronger effect = lower value
State the answer as a number, implicitly in %.

# input compound: CC1(O)CCCC1n1c(=O)c(C(F)F)cc2cnc(NC3CCN(S(C)(=O)=O)CC3)nc21 (stereo not drawn) + CCn1c(-c2cccnc2C(C)OC)c2c3cc(ccc31)N1CCOC(CC(NC(=O)C(C(C)C)N(C)C(=O)C3(F)CCN(C(=O)C#CC(C)(C)N(C)C)CC3)C(=O)N3CCCC(N3)C(=O)OCC(C)(C)C2)C1 ; wanted: its viability, T/C
63

Can you share its viability, T/C? I mean this compound: C[C@@H](NC(=O)c1ncnc(N)c1Cl)c1ncc(C(=O)Nc2cc(C(F)(F)F)c(Cl)cn2)s1 + CCn1c(-c2cc(N3CCN(C)CC3)cnc2C(C)OC)c2c3cc(ccc31)-c1csc(n1)CC(NC(=O)C1CC1C)C(=O)N1CCCC(N1)C(=O)OCC(C)(C)C2
92

Request the reported viability, T/C associated with Cc1nc(N2CCC3(CC2)COC(C)C3N)c(CO)nc1Sc1ccnc(N)c1Cl (stereo not drawn) + CCn1c(-c2cccnc2C(C)OC)c2c3cc(ccc31)N1CCOC(CC(NC(=O)C(C(C)C)N(C)C(=O)C3(F)CCN(C(=O)C#CC(C)(C)N(C)C)CC3)C(=O)N3CCCC(N3)C(=O)OCC(C)(C)C2)C1
89.9

Requested read-out: viability, T/C. Entry: CC(=O)OC12COC1CC(O)C1(C)C(=O)C(O)C3=C(C)C(OC(=O)C(O)C(NC(=O)OC(C)(C)C)c4ccccc4)CC(O)(C(OC(=O)c4ccccc4)C21)C3(C)C (stereo not drawn) + CCn1c(-c2cccnc2C(C)OC)c2c3cc(ccc31)N1CCOC(CC(NC(=O)C(C(C)C)N(C)C(=O)C3(F)CCN(C(=O)C#CC(C)(C)N(C)C)CC3)C(=O)N3CCCC(N3)C(=O)OCC(C)(C)C2)C1
17.7

So what's the measured viability, T/C for this one? Cc1nc(N2CCC3(CC2)COC(C)C3N)c(CO)nc1Sc1ccnc(N)c1Cl (stereo not drawn) + CCn1c(-c2cc(N3CCN(C)CC3)cnc2C(C)OC)c2c3cc(ccc31)-c1csc(n1)CC(NC(=O)C1CC1C)C(=O)N1CCCC(N1)C(=O)OCC(C)(C)C2
68.9

I'd like to know its viability, T/C. The compound in question is C=CC(=O)Nc1cc(Nc2nccc(-c3cn(C)c4ccccc34)n2)c(OC)cc1N(C)CCN(C)C + CCn1c(-c2cccnc2C(C)OC)c2c3cc(ccc31)N1CCOC(CC(NC(=O)C(C(C)C)N(C)C(=O)C3(F)CCN(C(=O)C#CC(C)(C)N(C)C)CC3)C(=O)N3CCCC(N3)C(=O)OCC(C)(C)C2)C1
82.7

Please report the recorded viability, T/C for CCN1CCN(Cc2ccc(Nc3ncc(F)c(-c4cc(F)c5nc(C)n(C(C)C)c5c4)n3)nc2)CC1 + CCn1c(-c2cc(N3CCN(C)CC3)cnc2C(C)OC)c2c3cc(ccc31)-c1csc(n1)CC(NC(=O)C1CC1C)C(=O)N1CCCC(N1)C(=O)OCC(C)(C)C2 .
15.2

Tell me the measured viability, T/C of CC(C)NCC(C(=O)N1CCN(c2ncnc3c2C(C)CC3O)CC1)c1ccc(Cl)cc1 (stereo not drawn) + CCn1c(-c2cc(N3CCN(C)CC3)cnc2C(C)OC)c2c3cc(ccc31)-c1csc(n1)CC(NC(=O)C1CC1C)C(=O)N1CCCC(N1)C(=O)OCC(C)(C)C2 , please.
87.8
